ASSAY TARGET: T1, human PTH/PTHrP receptor (PTH1R) (human, UniProt Q03431 27-593)
T1 construct: whole, on cells; HKrk-B7 cells about 10^6 receptors/cell; SaOS-2 about 30,000 receptors/cell; also called hPTH-1 receptor; PTH-1 receptor
T1 sequence (looked up): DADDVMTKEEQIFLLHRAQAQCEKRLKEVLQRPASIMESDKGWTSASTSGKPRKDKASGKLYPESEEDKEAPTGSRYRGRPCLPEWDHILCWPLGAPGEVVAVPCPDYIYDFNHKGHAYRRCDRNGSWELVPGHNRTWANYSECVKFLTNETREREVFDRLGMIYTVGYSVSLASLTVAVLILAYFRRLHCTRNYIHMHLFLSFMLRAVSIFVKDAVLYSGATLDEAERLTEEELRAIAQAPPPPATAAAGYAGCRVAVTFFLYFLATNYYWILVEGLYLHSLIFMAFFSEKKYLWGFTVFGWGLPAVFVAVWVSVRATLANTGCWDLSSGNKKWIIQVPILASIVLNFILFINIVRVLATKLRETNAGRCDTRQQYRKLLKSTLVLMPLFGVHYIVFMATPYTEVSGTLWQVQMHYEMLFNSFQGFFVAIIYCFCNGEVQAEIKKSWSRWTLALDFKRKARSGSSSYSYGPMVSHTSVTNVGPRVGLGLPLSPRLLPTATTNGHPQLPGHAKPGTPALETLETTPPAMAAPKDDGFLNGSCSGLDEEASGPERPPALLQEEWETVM
EXPERIMENT SUMMARY: radioreceptor competition on HKrk-B7 cells; tracer 125I-[Tyr36]PTHrP(1-36)amide
Where no end group is shown, it is not given here.
REPORTED PROPERTY: IC50 (nM)

{"BINDER": "ALADDAAFRERARLLAALERRHWLNSYMHKLLVLDAP (not fully specified (C-terminus)) [TIP(3-39)]", "DATA VALUE": 68}

A. H-AVSEHQLLHDKGKSIQDLRRRHWLNSYMHKLLVLDAP-NH2 (also called PTHrP/TIP chimera) [PTHrP(1-20)/TIP(23-39)]
B. AFRERARLLAALERRHWLNSYMHKLLVLDAP (not fully specified (C-terminus), also called human TIP-(9-39)) [TIP(9-39)]
// which entry reports the smaller IC50, A or B ? Write down the label attached to your selection.
A
